test system: rhinovirus HGP; assay: Inhibition of viral cytopathogenic effect (c.p.e.) of rhinovirus HGP in HeLa cells; assay type: cell-based, human rhinoviruses; conditions: Enterovirus, HeLa, 48 h, read-out: IC50 against rhinovirus HGP (concentration inhibiting the viral c.p.e. by 50%)
# Lookup of reported IC50 keyed by entry
quantity_measured: IC50

structure_smiles_string=CCOc1ccc(/C=C/C(=O)c2c(O)cc(OC)cc2OC)cc1 tested_system="rhinovirus HGP" quantity_measured=IC50 observed_value="0.02 to 0.05 mg/L"
structure_smiles_string=CCOc1ccc(/C=C/C(=O)c2c(OCC)cc(OCC)cc2OC(=O)CC)cc1 tested_system="rhinovirus HGP" quantity_measured=IC50 observed_value="0.1 to 0.3 mg/L"
structure_smiles_string=CCC(=O)Oc1cc(OC)cc(OC)c1C(=O)/C=C/c1ccc(Cl)cc1 tested_system="rhinovirus HGP" quantity_measured=IC50 observed_value="0.1 to 0.3 mg/L"
structure_smiles_string=COc1cc(O)c(C(=O)/C=C/c2ccc(N(C)C)cc2)c(OC)c1 tested_system="rhinovirus HGP" quantity_measured=IC50 observed_value="0.02 to 0.06 mg/L"
